Target: T1, cMetECDHis (human, UniProt P08581 25-932, limits assumed, biotinylated in the cross-block ELISA of Example 17)
T1 construct: Expressed in HEK-293F cells; also called soluble cMetECDHis; biotinylated cMetECDHis
Test: BLI (Octet); antibody captured, cMetECDHis in solution
METRIC: kon (M⁻¹ s⁻¹)
Give the quantity in M⁻¹ s⁻¹, number only.

The binder identified as IgG1-1016-069 (antibody, V domains shown, also called clone 069; TH1016-069) VH: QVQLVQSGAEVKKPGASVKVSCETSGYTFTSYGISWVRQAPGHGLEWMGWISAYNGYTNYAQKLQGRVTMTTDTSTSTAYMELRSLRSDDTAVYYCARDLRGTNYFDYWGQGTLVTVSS VL: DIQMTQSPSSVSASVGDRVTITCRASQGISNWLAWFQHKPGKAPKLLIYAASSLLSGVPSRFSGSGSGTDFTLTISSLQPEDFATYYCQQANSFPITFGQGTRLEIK registered its kon at 212000

The binder identified as IgG1-1016-058 (antibody, V domains shown, also called IgG1-058; TH1016-058) VH: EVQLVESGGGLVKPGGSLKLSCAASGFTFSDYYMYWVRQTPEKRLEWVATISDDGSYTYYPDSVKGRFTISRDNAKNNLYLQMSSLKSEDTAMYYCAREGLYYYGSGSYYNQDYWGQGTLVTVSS VL: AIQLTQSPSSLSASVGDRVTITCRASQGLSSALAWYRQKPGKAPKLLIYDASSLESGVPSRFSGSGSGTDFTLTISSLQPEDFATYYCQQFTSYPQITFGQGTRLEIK registered its kon at 464000

Value source: patent US20150329642A1
